Assay: Mouse PK studies after oral and IV dosing
Format: in vivo
Details: in vivo, po, 3 mg/kg
In this section, each of the compounds is paired with its reported Tmax.
Output spec: scalar in h, unitless text.

compound	Tmax, h
C[C@H]1CC2(CCN(c3ccc(C(=O)N4CCC(N5CCN(c6ccc7c(c6)C(=O)N(C6CCC(=O)NC6=O)C7=O)CC5)CC4)nn3)CC2)CN1c1ccc(C#N)c(Cl)c1 (stereo partly drawn) [Cpd. No. 499]	1.3

Problem: Any idea what its Tmax is? The compound is C[C@H]1CC2(CCN(c3ccc(C(=O)N4CCC(CN5CCN(c6ccc7c(c6)C(=O)N(C6CCC(=O)NC6=O)C7=O)CC5)CC4)cc3)CC2)CN1c1ccc(C#N)c(Cl)c1 (stereo partly drawn) [Cpd. No. 442]
Solution: 2.67

Problem: Follow-up entry: C[C@H]1CC2(CCN(c3ccc(C(=O)N4CCC(N5CCN(c6cc7c(cc6F)C(=O)N(C6CCC(=O)NC6=O)C7=O)CC5)CC4)nn3)CC2)CN1c1ccc(C#N)c(Cl)c1 (stereo partly drawn) [Cpd. No. 500]
Solution: 1.7

Problem: Follow-up entry: C[C@H]1CC2(CCN(c3ccc(C(=O)N4CCC(CN5CCN(c6cc7c(cc6F)C(=O)N(C6CCC(=O)NC6=O)C7=O)CC5)CC4)cc3)CC2)CN1c1ccc(C#N)c(Cl)c1 (stereo partly drawn) [Cpd. No. 444]
Solution: 4

Problem: Follow-up entry: C[C@H]1CC2(CCN(c3ccc(C(=O)N4CCN(C5CN(c6ccc7c(c6)CN(C6CCC(=O)NC6=O)C7=O)C5)CC4)cc3)CC2)CN1c1ccc(C#N)c(Cl)c1 (stereo partly drawn) [Cpd. No. 346]
Solution: 3.3

Problem: Follow-up entry: C[C@H]1CC2(CCN(c3ccc(C(=O)N4CCC(CN5Cc6cc7c(cc6C5)C(=O)N(C5CCC(=O)NC5=O)C7=O)CC4)nn3)CC2)CN1c1ccc(C#N)c(Cl)c1 (stereo partly drawn) [Cpd. No. 496]
Solution: 1

====

Molecular target: AR protein (Homo sapiens, UniProt P10275)
Construct: endogenous in cells; host or cells: VCaP
Sequence (P10275 1-920): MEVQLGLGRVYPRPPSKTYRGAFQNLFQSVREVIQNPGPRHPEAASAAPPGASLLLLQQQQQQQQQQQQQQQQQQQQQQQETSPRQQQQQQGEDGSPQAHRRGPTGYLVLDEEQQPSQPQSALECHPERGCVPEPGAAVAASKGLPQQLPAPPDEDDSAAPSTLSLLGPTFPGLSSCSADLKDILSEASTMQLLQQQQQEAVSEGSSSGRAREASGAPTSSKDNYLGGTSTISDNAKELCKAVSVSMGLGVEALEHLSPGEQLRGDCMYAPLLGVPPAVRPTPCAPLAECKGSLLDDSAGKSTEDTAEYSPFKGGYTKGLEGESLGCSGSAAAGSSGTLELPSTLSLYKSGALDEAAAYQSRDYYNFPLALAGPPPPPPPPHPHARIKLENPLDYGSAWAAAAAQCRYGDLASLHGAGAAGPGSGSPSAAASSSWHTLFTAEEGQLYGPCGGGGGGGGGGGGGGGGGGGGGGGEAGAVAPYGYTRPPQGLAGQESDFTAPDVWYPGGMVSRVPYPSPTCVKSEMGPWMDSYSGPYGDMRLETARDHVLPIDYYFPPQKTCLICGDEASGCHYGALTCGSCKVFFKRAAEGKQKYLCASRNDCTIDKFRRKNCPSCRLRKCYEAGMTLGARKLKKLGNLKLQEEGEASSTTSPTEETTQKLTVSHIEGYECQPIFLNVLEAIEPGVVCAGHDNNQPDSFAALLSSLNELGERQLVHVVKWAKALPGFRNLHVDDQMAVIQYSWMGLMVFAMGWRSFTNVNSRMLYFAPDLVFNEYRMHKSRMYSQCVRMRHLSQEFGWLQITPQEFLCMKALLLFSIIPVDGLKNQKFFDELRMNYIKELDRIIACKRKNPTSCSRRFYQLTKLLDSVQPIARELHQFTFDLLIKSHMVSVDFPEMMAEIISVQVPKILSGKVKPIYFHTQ
Assay: Western blotting analysis of AR protein levels in VCaP cells, band quantification, DC50/DC90
Format: cell-based
Details: VCaP cells, Table 6; read-out: VCaP DC50
measured_property: DC50

compound	DC50
C[C@H]1CC2(CCN(c3ccc(C(=O)N4CCN(CC5CN(c6cc7c(cc6F)C(=O)N(C6CCC(=O)NC6=O)C7=O)C5)CC4)cc3)CC2)CN1c1ccc(C#N)c(Cl)c1 (stereo partly shown) [Cpd. No. 502]	< 1 nM

Now consider a different compound.
Problem: Please state recorded DC50 (tested on AR protein (Homo sapiens, UniProt P10275)) of C[C@H]1CC2(CCN(c3ccc(C(=O)N4CCC(N5CCN(c6ccc7c(c6)C(=O)N(C6CCC(=O)NC6=O)C7=O)CC5)CC4)nn3)CC2)CN1c1ccc(C#N)c(Cl)c1 (stereo partly shown) [Cpd. No. 499]
Solution: < 1 nM

====

In this section, each of the compounds is paired with its reported half-life.
Test: Mouse PK studies after oral and IV dosing
Format: in vivo
Settings: in vivo, iv, 1 mg/kg, IV, dose 1 mg/kg, read-out: IV T1/2 (converted)
Write the numeric value and follow it with the unit.

// worked examples, half-life included
compound	half-life
C[C@H]1CC2(CCN(c3ccc(C(=O)N4CCN(C5CN(c6cc7c(cc6F)C(=O)N(C6CCC(=O)NC6=O)C7=O)C5)CC4)cc3)CC2)CN1c1ccc(C#N)c(Cl)c1 (some centres unmarked)	414 min
C[C@H]1CC2(CCN(c3ccc(C(=O)N4CCN(CC5CN(c6ccc7c(c6)C(=O)N(C6CCC(=O)NC6=O)C7=O)C5)CC4)nn3)CC2)CN1c1ccc(C#N)c(Cl)c1 (some centres unmarked)	366 min
C[C@H]1CC2(CCN(c3ccc(C(=O)N4CC[C@@H](CN5CCN(c6ccc7c(c6)C(=O)N(C6CCC(=O)NC6=O)C7=O)CC5)C4)cc3)CC2)CN1c1ccc(C#N)c(Cl)c1 (some centres unmarked)	164 min
C[C@H]1CC2(CCN(c3ccc(C(=O)N4CCN(CC5CCN(c6ccc7c(c6)C(=O)N(C6CCC(=O)NC6=O)C7=O)CC5)CC4)nn3)CC2)CN1c1ccc(C#N)c(Cl)c1 (some centres unmarked)	462 min

Now consider a different compound.
Problem: Any idea what its half-life is? The compound is C[C@H]1CC2(CCN(c3cnc(C(=O)N4CCN(CC5CCN(c6ccc7c(c6)C(=O)N(C6CCC(=O)NC6=O)C7=O)CC5)CC4)cn3)CC2)CN1c1ccc(C#N)c(Cl)c1 (some centres unmarked)
Solution: 324 min

====

Experiment: Mouse PK studies after oral and IV dosing
Assay type: in vivo
Conditions: in vivo, po, 3 mg/kg
measured_property: Cmax

// worked examples, Cmax included
compound	Cmax
C[C@H]1CC2(CCN(c3ccc(C(=O)N4CCN(C5CCN(c6ccc7c(c6)C(=O)N(C6CCC(=O)NC6=O)C7=O)CC5)CC4)cc3F)CC2)CN1c1ccc(C#N)c(Cl)c1 (some centres unmarked) [Cpd. No. 521]	344 ng/mL
C[C@H]1CC2(CCN(c3ccc(C(=O)N4CCN(CC5CN(c6ccc7c(c6)C(=O)N(C6CCC(=O)NC6=O)C7=O)C5)CC4)cc3F)CC2)CN1c1ccc(C#N)c(Cl)c1 (some centres unmarked) [Cpd. No. 528]	149 ng/mL
C[C@H]1CC2(CCN(c3ccc(C(=O)N4CCC(CN5CCN(c6ccc7c(c6)C(=O)N(C6CCC(=O)NC6=O)C7=O)CC5)CC4)nn3)CC2)CN1c1ccc(C#N)c(Cl)c1 (some centres unmarked) [Cpd. No. 489]	477 ng/mL

Problem: Any idea what its Cmax is? The compound is C[C@H]1CC2(CCN(c3ccc(C(=O)N4CCN(C5CCN(c6ccc7c(c6)C(=O)N(C6CCC(=O)NC6=O)C7=O)CC5)CC4)cc3)CC2)CN1c1ccc(C#N)c(Cl)c1 (some centres unmarked) [Cpd. No. 302]
Solution: 526 ng/mL

Problem: Follow-up entry: C[C@H]1CC2(CCN(c3ccc(C(=O)N4CCN(CC5CCN(c6cc7c(cc6F)C(=O)N(C6CCC(=O)NC6=O)C7=O)CC5)CC4)nn3)CC2)CN1c1ccc(C#N)c(Cl)c1 (some centres unmarked) [compound 588]
Solution: 347 ng/mL

====

Assay: Mouse PK studies after oral and IV dosing
Assay type: in vivo
Settings: in vivo, iv, 1 mg/kg, IV, dose 1 mg/kg, read-out: IV AUC(0 − t)
measured_property: AUC(0-t) (ng·h/mL)
Output spec: scalar in ng·h/mL, unitless text.

compound	AUC(0-t) [ng·h/mL]
C[C@H]1CC2(CCN(c3ccc(C(=O)N4CCN(C5CCN(c6ccc7c(c6)C(=O)N(C6CCC(=O)NC6=O)C7=O)CC5)CC4)cc3F)CC2)CN1c1ccc(C#N)c(Cl)c1 (stereo partly shown) [Cpd. No. 521]	2990

Problem: Any idea what its AUC(0-t) is? The compound is C[C@H]1CC2(CCN(c3cnc(C(=O)N4CCC(N5CCN(c6cc7c(cc6F)C(=O)N(C6CCC(=O)NC6=O)C7=O)CC5)CC4)cn3)CC2)CN1c1ccc(C#N)c(Cl)c1 (stereo partly shown) [Cpd. No. 498]
Solution: 419

Problem: Follow-up entry: C[C@H]1CC2(CCN(c3ccc(C(=O)N4CCN(CC5CN(c6cc7c(cc6F)C(=O)N(C6CCC(=O)NC6=O)C7=O)C5)CC4)nn3)CC2)CN1c1ccc(C#N)c(Cl)c1 (stereo partly shown) [Cpd. No. 485]
Solution: 2350

Problem: Follow-up entry: C[C@H]1CC2(CCN(c3ccc(C(=O)N4CCC(N5CCN(c6ccc7c(c6)C(=O)N(C6CCC(=O)NC6=O)C7=O)CC5)CC4)cc3F)CC2)CN1c1ccc(C#N)c(Cl)c1 (stereo partly shown) [Cpd. No. 511]
Solution: 9040

Problem: Follow-up entry: C[C@H]1CC2(CCN(c3ccc(C(=O)N4CC[C@@H](CN5CCN(c6ccc7c(c6)C(=O)N(C6CCC(=O)NC6=O)C7=O)CC5)C4)cc3)CC2)CN1c1ccc(C#N)c(Cl)c1 (stereo partly shown) [compound 448]
Solution: 78

Problem: Follow-up entry: C[C@H]1CC2(CCN(c3ccc(C(=O)N4CCN(CC5CCN(c6ccc7c(c6)C(=O)N(C6CCC(=O)NC6=O)C7=O)CC5)CC4)nn3)CC2)CN1c1ccc(C#N)c(Cl)c1 (stereo partly shown) [Cpd. No. 491]
Solution: 2640

Problem: Follow-up entry: C[C@H]1CC2(CCN(c3ccc(C(=O)N4CCC(CN5Cc6cc7c(cc6C5)C(=O)N(C5CCC(=O)NC5=O)C7=O)CC4)nn3)CC2)CN1c1ccc(C#N)c(Cl)c1 (stereo partly shown) [Cpd. No. 496]
Solution: 3030

Problem: Follow-up entry: C[C@H]1CC2(CCN(c3ccc(C(=O)N4CCC(N5CCN(c6ccc7c(c6)C(=O)N(C6CCC(=O)NC6=O)C7=O)CC5)CC4)cc3)CC2)CN1c1ccc(C#N)c(Cl)c1 (stereo partly shown) [Cpd. No. 443]
Solution: 8440

Problem: Follow-up entry: C[C@H]1CC2(CCN(c3ccc(C(=O)N4CCN(C5CN(c6cc7c(cc6F)C(=O)N(C6CCC(=O)NC6=O)C7=O)C5)CC4)cc3)CC2)CN1c1ccc(C#N)c(Cl)c1 (stereo partly shown) [Cpd. No. 344]
Solution: 4930

Problem: Follow-up entry: C[C@H]1CC2(CCN(c3ccc(C(=O)N4CCC(N5CCN(c6cc7c(cc6F)C(=O)N(C6CCC(=O)NC6=O)C7=O)CC5)CC4)nn3)CC2)CN1c1ccc(C#N)c(Cl)c1 (stereo partly shown) [Cpd. No. 500]
Solution: 1880
